System: SN12C renal
measurement.notes: NCI-60 one-dose screen, 48 h
test.parameters: 10 µM unless noted
This is part of a sample that, as a whole, favours compounds with a hit. Of some 83,000 tested, about 20% had one in any assay. Calls of active or inactive are those of the source. The calls were made as follows: active = growth percent below 10; inactive = the rest.
Tick one outcome: t for active, f for inactive

Solved entries:
C=C(C)[C@@H]1CC[C@]2(C(=O)OCCCC[P+](c3ccccc3)(c3ccccc3)c3ccccc3)CC[C@]3(C)[C@H](CC[C@@H]4[C@@]5(C)CC[C@H](OC(=O)C(Cl)Cl)C(C)(C)[C@@H]5CC[C@]43C)[C@@H]12 :: t
C=C1C(=O)O[C@H]2[C@H]1CC/C(COC(=O)c1c[nH]c3ccccc13)=C\CC[C@@]1(C)O[C@@H]21 :: t

Hey, what did the test say about COc1ccc(-c2cc(-c3nnc(SCC(=O)Nc4ccc(C(C)=O)cc4)o3)c3ccccc3n2)cc1 ?
t

Hi, sorry to bother you, what did the test record for NS(=O)(=O)c1ccc(-n2nc(-c3ccccc3)ccc2=O)cc1 ?
f

Please share the test call associated with C=C1C(=O)O[C@H]2[C@H]1CC/C(COC(=O)CCCCC(=O)OC/C1=C/CC[C@@]3(C)O[C@H]3[C@H]3OC(=O)C(=C)[C@@H]3CC1)=C\CC[C@@]1(C)O[C@@H]21 .
f

State the result this test recorded for CS(=O)(=O)O[C@@H]1C(=O)N(c2cc3c4ccccc4ccc3c3ccccc23)[C@H]1c1ccc(F)cn1 .
f

Record lookup: outcome of this test for C=C1C(=O)O[C@H]2[C@H]1CC/C(COC(=O)c1cccnc1)=C\CC[C@@]1(C)O[C@@H]21 ?
f

====

Tested on: HCT-116 colon
measurement.notes: NCI-60 one-dose screen, 48 h (100 = growth as untreated, 0 = no growth, -100 = all killed)
test.parameters: 10 µM unless noted
Compounds without any hit were thinned out: in the full panel of roughly 83,000, 20% have a hit.
Would you mind telling me the reported growth of each entry?
Give bare numbers, in %.

Some compounds with known growth results, for comparison:
CC(=O)OCC1SC(OC(C)=O)C(NC(=O)/C=C/CCl)C(OC(C)=O)C1OC(C)=O (stereo not given) :: 101
NC(=O)CN1C(=O)c2ccccc2C1=O :: 102
COc1cc(/C=C/CO)cc(OC)c1O[C@@H]1O[C@H](CO)[C@@H](O)[C@H](O)[C@H]1O :: 95.8

I'm hoping you can list growth for every compound here, please.
1. Cc1ccc(C(=O)O)o1
2. COc1cc(F)c(-c2nc3c(C)cccc3n2Cc2c(F)cccc2F)c(F)c1

[96.1, 74.6]

====

Test system: M14 melanoma
measurement.notes: NCI-60 one-dose screen, 48 h
test.parameters: 10 µM unless noted
The panel holds about 83,000 compounds, 20% with a hit somewhere; the sample as a whole holds those more often. Active and inactive are the calls of the source. The calls were made as follows: active = growth percent below 10; inactive = the rest.
Result category, one only: Y (active), N (inactive)

Solved cases (5 shown):
CC(C)(C)c1nc2c(s1)c1nc(N)ncc1c1ccc(NS(=O)(=O)c3c(F)cccc3F)c(F)c12 :: Y
O=C1Nc2ccc(Br)cc2/C1=N\N=C/c1cn(Cc2ccccc2)c2ccccc12 :: N
N#Cc1c(-c2ccc(F)cc2)nc(N/N=C/c2cccc(O)c2)nc1N1CCOCC1 :: N
Cc1cnc(SCc2ccc(Cl)cc2Cl)nc1Nc1ccc(Cl)c(Cl)c1 :: N
C#CC[C@@H]1C[C@]2(C)[C@H]3CC[C@@H]4[C@H]5[C@H](C(=C)C)CC[C@]5(C(=O)O)CC[C@@]4(C)[C@]3(C)CC[C@H]2C(C)(C)[C@H]1O :: N

Short answer needed: outcome of this test for COc1cc(NC(=O)Nc2cnc(Nc3ccc(N4CCOCC4)cc3)nc2Oc2ccc(C(F)(F)F)cc2)cc(OC)c1 ?
N

Can you look up the reported call for COc1ccc(-c2nnc(N3CCN(C(=O)CN4CCN(c5ccccc5)CC4)CC3)nc2-c2ccc(OC)cc2)cc1 for me?
N

====

Tested on: MDA-MB-435 melanoma
measurement.notes: NCI-60 one-dose screen, 48 h
test.parameters: 10 µM unless noted
Compounds without any hit were thinned out: in the full panel of roughly 83,000, 20% have a hit. The source made the active and inactive calls. Rule for the calls: active = growth percent below 10; inactive = the rest.
Give your call using only these classes: active, inactive

A selection of reference data follows.
Nc1ccc2c(c1)C(=O)C(=O)c1c-2nc2ccccn12 :: active
COC(=O)c1oc2c(C(=O)/C=C/c3ccc(OC)cc3)c(OCCCN3CCCCC3)ccc2c1C :: active
CN(C)c1ccc(-c2ccc3[nH]c(=O)nc(-c4ccc(F)cc4)c3c2)cn1 :: active
C/C(=C\c1cnc(C)s1)[C@@H]1C[C@@H]2O[C@@H]2CCC[C@H](C)[C@H](O)[C@@H](C)C(=O)C(C)(C)[C@@H](O)CC(=O)O1 :: active
NS(=O)(=O)c1ccc(-n2nc(-c3ccccc3)ccc2=O)cc1 :: inactive

Short answer needed: outcome of this test for CC1(C)[C@@H](O)CC[C@]2(C)[C@H]3CC[C@@H]4[C@H]5[C@H](c6cn(-c7ccccc7)nn6)CC[C@]5(CO)CC[C@@]4(C)[C@]3(C)CC[C@@H]12 ?
inactive

Which outcome did this test record for the compound Cc1ccc(-c2nc(C#N)c(S(=O)(=O)N(C)CCO)o2)cc1 ?
inactive

Recorded test outcome, item O=C1C(Cl)=C(Nc2ccc3c(c2NC2=C(Cl)C(=O)c4ccccc4C2=O)C(=O)c2ccccc2C3=O)C(=O)c2ccccc21
active

How did this test come out for Cc1cc(C)c2nc(Nc3nc(C)c(C)c(=O)[nH]3)nc(C)c2c1 ?
inactive

Would you mind telling me which call this test gave COc1ccc(-c2[nH]c3ccccc3c2C=C(C#N)C#N)cc1 ?
active

Which outcome was assigned to CCOC(=O)/C=C1\SC(=Nc2ccc(C#N)cc2)N(CCN2C(=O)/C(=C/C(=O)OCC)SC2=Nc2ccc(C#N)cc2)C1=O in this test?
inactive

Could you check what this test reported for Nc1ccccc1NS(=O)(=O)c1ccc(Cl)cc1 ?
inactive

In this assay, the call recorded for c1ccc2nc(N3CCOCC3)c(N3CCCCC3)nc2c1 was what?
inactive

Per the records of this test, what outcome belongs to COc1cc(C2=N/C(=C\c3cc4ccccc4nc3Oc3ccccc3)C(=O)N2C(=N)N)cc(OC)c1OC ?
inactive

Answer briefly: the call reported for COc1cc(N=Nc2cc(S(=O)(=O)O)cc3cc(S(=O)(=O)O)cc(O)c23)c(C)cc1N=Nc1c(S(=O)(=O)O)cc2cc(Nc3ccccc3)ccc2c1O in this assay.
inactive

====

Test system: OVCAR-8 ovarian
measurement.notes: NCI-60 one-dose screen, 48 h (100 = growth as untreated, 0 = no growth, -100 = all killed)
test.parameters: 10 µM unless noted
Method: Growth inhibition of the OVCAR-8 human tumor cell line is measured as a screen for anti-cancer activity. Cells are grown in 96 well plates and exposed to the test compound for 48 hours. Compounds are tested at a single concentration, which is 10^-5 M for most compounds. The reported endpoint is percent growth (GI% or GIPRCNT), where numbers from 0 - 100% represent growth inhibition, and numbers from -100% - 0 represent cell death. For example, a value of 40 represents 60% growth inhibition. […]
This is part of a sample that, as a whole, favours compounds with a hit. Of some 83,000 tested, about 20% had one in any assay.
Tick satisfied if growth is 80% or greater. Tick not satisfied if growth is less than 80%.

Look over these answered cases.
CSc1cccc(NC(=O)Nc2nc3c(C)cccc3s2)c1 :: satisfied
C[C@H]1[C@H](C)CC[C@]2(C(=O)OCCOCCOCC[P+](c3ccccc3)(c3ccccc3)c3ccccc3)CC[C@]3(C)C(=CC[C@@H]4[C@@]5(C)CC[C@H](OC(=O)C(Cl)Cl)C(C)(C)[C@@H]5CC[C@]43C)[C@H]12 :: not satisfied
O=C(O)c1cn(C2CC2)c2cc(N3CCN(C(=O)CSc4nnc(-c5ccc(Cl)cc5)n4-c4ccccc4)CC3)c(F)cc2c1=O :: satisfied
FC(F)(F)c1ccc2c(Nc3cccc(C4CC(c5ccccc5)=NN4c4ccc(Cl)cc4)c3)ccnc2c1 (stereo unspecified) :: not satisfied

Let's switch to this compound now.
Quick check, growth >= 80%? Cc1c(Cl)cccc1NC(=O)c1sc2nc3c(cc2c1N)COCC3
not satisfied

====

System: OVCAR-3 ovarian
measurement.notes: NCI-60 one-dose screen, 48 h
test.parameters: 10 µM unless noted
This is part of a sample that, as a whole, favours compounds with a hit. Of some 83,000 tested, about 20% had one in any assay. Calls of active or inactive are those of the source. The calls were made as follows: active = growth percent below 10; inactive = the rest.
Pick one and only one: active, inactive

For orientation, consider the following solved cases.
C=C1C(=O)O[C@H]2[C@H]1CC/C(COC(=O)c1cc3ccccc3o1)=C\CC[C@@]1(C)O[C@@H]21 :: active
CCN(CC)c1ccc2c(c1)Oc1nc(N)c(C#N)c(N)c1C2Sc1ccc(OC)cc1 (stereo not drawn) :: active
COc1cc(C(=O)Nc2cc(O)c(C/C=C(\C)CCC=C(C)C)c(O)c2)cc2c1O[C@]1(C)CC[C@@H](O)C(C)(C)[C@H]1C2 :: active
Cn1c2ccccc2c2c(OC(=O)c3ccccc3)c3c(nc21)-c1ccccc1C3 :: inactive
CCCn1c2cc(OCc3cn(-c4ccc(Cl)cc4)nn3)ccc2c2ccnc(C)c21 :: inactive
CCOC(=O)c1c(C)nc2c(c1N)/C(=C/c1ccccn1)C(=O)N2Cc1ccccc1 :: active
C=CCn1c(SCC(=O)Nc2ccc(C(=O)/C=C/c3cc(OC)c(OC)c(OC)c3)cc2)nnc1-c1ccc(Cl)cc1 :: active
O=C(Nc1nccs1)c1noc2ccccc12 :: inactive

Could you please tell me the result logged for COc1ccc(Cc2nc(C#N)c(N3CCN(c4ccc(F)cc4)CC3)o2)cc1 in this assay?
inactive

What did the test return for CN(C)C(CNc1oc(-c2cccc3ccccc23)nc1C#N)c1ccco1 (stereo not drawn) ?
inactive
